System: 3T3-L1
Assay: Inhibition of TNF-alpha induced lipolysis in mouse 3T3-L1 adipocytes assessed as reduction in glycerol release at 2.5 to 25 uM measured after 4 hrs by glycerol reagent based assay
Type: functional, cell-based
Details: dose 2.5-25 µM
The source made the active and inactive calls. The rule behind the calls is not given here.
Please answer using one outcome listed in T = active, F = inactive

As a guide, the following entries are already answered.
CC(=O)OC/C(C)=C\Cc1cc(/C=C\C(=O)O)cc(C/C=C(/C)CO)c1O T
CC(=O)OC/C(C)=C\Cc1cc(/C=C/C(=O)O)cc(C/C=C(/C)CO)c1O T
CC(C)=CCc1cc(/C=C/C(=O)O)cc(C/C=C(\C)CO)c1O F

API: the following record is the query input.
Dear all, I need the recorded test outcome for CC(C)=CCc1cc(/C=C/C(=O)O)cc(C/C=C(/C)CO)c1O , thank you.
F
